Experiment: NCI Yeast Anticancer Drug Screen. Data for the mlh1 rad18 strain (AID 175)
Details: S. cerevisiae mlh1 rad18 strain growth inhibition; at 50.0 µM (retest, dose inferred, filed as 5.0)
Compounds without any hit were thinned out: in the full panel of roughly 79,000, 15% have a hit. Calls of active or inactive are those of the source. Cut-off read from the data, not from the text of the source: active = growth inhibition above about 70%; inactive = the rest.
The reply should be one of these categories: active, inactive

Check out these entries, answers already filled in.
- COMPOUND: "O=S(=O)(c1ccccc1)C1CN=NC1c1ccccc1 (stereo not drawn)"
  DISCRETE LABEL: "active"
- COMPOUND: "COc1ccc(C=C(C(=O)c2ccccc2)C(=O)c2ccccc2)cc1"
  DISCRETE LABEL: "active"
- COMPOUND: "O=C(OCc1ccccc1)N1N=NC2C1C1CC(OCc3ccccc3)(OCc3ccccc3)C2O1 (stereo not drawn)"
  DISCRETE LABEL: "inactive"
- COMPOUND: "CCC(C1SC(=S)NC1=O)C1SC(=S)NC1=O (stereo not drawn)"
  DISCRETE LABEL: "inactive"
- COMPOUND: "O=[N+]([O-])c1nccn1CCCNCCCn1ccnc1[N+](=O)[O-]"
  DISCRETE LABEL: "inactive"

**Q:** Tell me the assay call for `Cc1ccc(-c2c(C#N)c(S)n(NS(=O)(=O)c3ccccc3)c(=O)c2C#N)cc1` please.
**A:** inactive

**Q:** Tell me the assay call for CCOC(=O)C(Br)C(Br)c1cccc(Cl)c1 (stereo not drawn) please.
**A:** active

**Q:** Tell me the assay call for `O=NN(CCCl)C(=O)Oc1ccc(OC(=O)N(CCCl)N=O)cc1` please.
**A:** active

**Q:** Tell me the assay call for `[O-][n+]1ccccc1Sc1nc(Sc2cccc[n+]2[O-])nc(Sc2cccc[n+]2[O-])n1` please.
**A:** active

**Q:** Tell me the assay call for N#CC(C(=O)C(=O)Nc1ccc(Cl)c(Cl)c1)c1c(Cl)cccc1Cl (stereo not drawn) please.
**A:** inactive

* * *

Test: NCI Yeast Anticancer Drug Screen. Data for the mlh1 rad18 strain (AID 175)
Conditions: S. cerevisiae mlh1 rad18 strain growth inhibition; at 5.0 µM (retest, dose inferred, filed as 0.5); active compounds read high
This is part of a sample that, as a whole, favours compounds with a hit. Of some 79,000 tested, about 15% had one in any assay. Activity calls are given as the source filed them. No stated cut-off is given here; in the data, active means growth inhibition above about 70%; inactive means the rest.
compounds and their reported growth inhibition

Here's what some known entries look like.
- COMPOUND: "C/C(=N\\NS(=O)(=O)c1ccc(C)cc1)c1cc2ccccc2n1C"
  growth inhibition: "3% (inactive)"
- COMPOUND: "CCCCN(CCCC)CCCC(O)c1c2ccc(Cl)cc2nc2ccc(OC)cc12 (stereo not given)"
  growth inhibition: "3% (inactive)"
- COMPOUND: "O=C(CC(c1ccccc1)N1CCCCC1)OC1c2ccccc2-c2ccccc21 (stereo not given)"
  growth inhibition: "35% (inactive)"
- COMPOUND: "CCCC(=O)c1cc(O)c(O)c(CN(C)Cc2cc(Cl)cc(C)c2O)c1O"
  growth inhibition: "19% (inactive)"

Let us examine a further case.
**Q:** What does the data say about its growth inhibition? Entry: O=S(=O)(O)CC[S][Sn]([S]CCS(=O)(=O)O)([c]1ccccc1)[c]1ccccc1 (tested in a mixture with another compound)
**A:** 94% (active)

* * *

Experiment: NCI Yeast Anticancer Drug Screen. Data for the mlh1 rad18 strain (AID 175)
Details: S. cerevisiae mlh1 rad18 strain growth inhibition; at 5.0 µM (retest, dose inferred, filed as 0.5); active compounds read high
Compounds without any hit were thinned out: in the full panel of roughly 79,000, 15% have a hit.
VALUE KIND: growth inhibition (%)
Only the number, expressed in %, is required.

- COMPOUND: "COc1ccc(C2CC(c3sc(Nc4ccc(C)cc4)nc3C)=NN2)cc1 (configuration not stated)"
  REPORTED MEASUREMENT: -2
- COMPOUND: "S=c1[nH]c2cc(-c3ccccc3)ccc2o1"
  REPORTED MEASUREMENT: 51
- COMPOUND: "O=CCCCc1cc2c(cc1Br)CCC2"
  REPORTED MEASUREMENT: 21
- COMPOUND: "O=C(NC(c1ccccc1)N1CCOCC1)c1ccccc1 (configuration not stated)"
  REPORTED MEASUREMENT: -9
- COMPOUND: "c1ccc([P+](c2ccccc2)(c2ccccc2)C2CCCCO2)cc1 (configuration not stated)"
  REPORTED MEASUREMENT: 1
- COMPOUND: "COc1ccc(C2COc3c(ccc(O)c3O)C2)cc1 (configuration not stated)"
  REPORTED MEASUREMENT: 1

**Q:** What does the data say about its growth inhibition? Entry: CC1CCC(C(C)C)C(OC(=O)Nc2ccc(S(=O)(=O)N(C)C)cc2)C1 (configuration not stated)
**A:** 32

**Q:** What does the data say about its growth inhibition? Entry: `COc1ccc(/C=C/C(C(=O)O)C(=O)O)cc1`
**A:** -4

**Q:** What does the data say about its growth inhibition? Entry: `O=C(/C=C\c1ccc(Cl)c(Cl)c1)c1cccs1`
**A:** -3

**Q:** What does the data say about its growth inhibition? Entry: `C=CCNCCC1CCCCCC1`
**A:** 4

**Q:** What does the data say about its growth inhibition? Entry: `O=[N+]([O-])c1nccn1CCCNCCCn1ccnc1[N+](=O)[O-]`
**A:** 24

**Q:** What does the data say about its growth inhibition? Entry: CN/N=C(\C)C(CN1CCCCC1)C(C1=C(O)c2ccccc2OC1)c1ccccc1 (configuration not stated)
**A:** 25

* * *

Assay: NCI Yeast Anticancer Drug Screen. Data for the rad50 strain (AID 155);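 note: 0% = growth of vehicle-only cultures of the same strain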
Settings: S. cerevisiae rad50 strain growth inhibition; at 50.0 µM; active compounds read high
Compounds without any hit were thinned out: in the full panel of roughly 79,000, 15% have a hit.
# cutoff 60% applies to growth inhibition; >= gives true, < gives false

Check out these entries, answers already filled in.
- COMPOUND: "O=C(O)C(CCc1cccc2ccccc12)c1ccccc1 (stereo unspecified)"
  DISCRETE LABEL: "true"
- COMPOUND: "O=C(Oc1c(I)ccccc1=O)c1ccc([N+](=O)[O-])cc1"
  DISCRETE LABEL: "true"
- COMPOUND: "CC(C)CCOC(=O)c1ccc(O)cc1.[Zn+2]"
  DISCRETE LABEL: "true"
- COMPOUND: "Cc1ccc2sc3ccc(N)cc3c(=O)c2c1"
  DISCRETE LABEL: "true"

**Q:** # check: growth inhibition of `CCCNC(=S)N/N=C(/C)c1nccc2ccccc12` is greater than or equal to 60%
**A:** false

**Q:** # check: growth inhibition of `Cc1ccc(S(=O)(=O)Oc2ccc(C(C)(C)C)cc2Cl)cc1` is greater than or equal to 60%
**A:** false

**Q:** # check: growth inhibition of `CC(=O)Oc1c(O)c2ccccc2c2ccccc12` is greater than or equal to 60%
**A:** true

**Q:** # check: growth inhibition of CCCCCCCCCCCCCCNC(=O)CCC(NC(=O)c1ccc(N(C)Cc2cnc3nc(N)nc(N)c3n2)cc1)C(=O)NCCCCCCCCCCCCCC (stereo unspecified) is greater than or equal to 60%
**A:** true

**Q:** # check: growth inhibition of `CC(=O)OCc1cc(=O)n(C)c2c3c4c(cc12)c(C)cc(=O)n4CO3` is greater than or equal to 60%
**A:** true

**Q:** # check: growth inhibition of `COC1=C(Br)C(=O)N/C1=C(\OC)c1ccccc1` is greater than or equal to 60%
**A:** false

**Q:** # check: growth inhibition of CN(C)/N=C1\CC(c2ccccc2)C(C#N)(C#N)C1(C#N)C#N (stereo unspecified) is greater than or equal to 60%
**A:** true

* * *

Assay: NCI Yeast Anticancer Drug Screen. Data for the rad50 strain (AID 155);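 note: 0% = growth of vehicle-only cultures of the same strain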
Conditions: S. cerevisiae rad50 strain growth inhibition; at 50.0 µM
The panel holds about 79,000 compounds, 15% with a hit somewhere; the sample as a whole holds those more often. Calls of active or inactive are those of the source. Rule as the data show it: active = growth inhibition above about 70%; inactive = the rest.
The reply should be one of these categories: active, inactive

- MOLECULE: "CCCCCCCCCCC(NC(C)=O)(C(=O)OCC)C(=O)OCC"
  DISCRETE LABEL: "active"
- MOLECULE: "NC1CCCCC1N.O=S(=O)([O-])CCCN1CCOCC1.O=S(=O)([O-])CCCN1CCOCC1.[Pt+4]"
  DISCRETE LABEL: "active"
- MOLECULE: "CCCCCCCCCCCCCC/C(=C/OCC[N+](C)(C)C)OC(C)=O (tested in a mixture with another compound)"
  DISCRETE LABEL: "active"

**Q:** Tell me the assay call for `NC(=S)NNc1c([N+](=O)[O-])cnn(-c2ccccc2)c1=O` please.
**A:** inactive

**Q:** Tell me the assay call for `Clc1ccccc1C=Nc1cccc2ccccc12` please.
**A:** inactive
